System: PMNs
Experiment: Chemotaxis assay, PMNs (fMLP)
Format: cell-based
Settings: Homo sapiens; [cpd] 10 μM; fMLP 10 nM; 2 h
Measured Parameter: inhibition at 10 µM (%)
Numbers only here, please. The scale is %.

Reference set (8 entries):
{"Mol": "COc1cc2[nH]c(C(=O)N3CCOCC3)c(-c3ccccc3)c2cc1OC", "Readout Units": "%", "inhibition at 10 µM": 75.4}
{"Mol": "COc1ccc(-c2c3n(c4cc(OC)c(OC)cc24)CC(=O)NC3)cc1", "Readout Units": "%", "inhibition at 10 µM": 50}
{"Mol": "COc1ccc(-c2c(C#N)n(CCN(C)C)c3cc(OC)c(OC)cc23)cc1", "Readout Units": "%", "inhibition at 10 µM": 52.3}
{"Mol": "COc1ccc(-c2c(-c3nnc(C)o3)[nH]c3cc(OC)c(OC)cc23)cc1", "Readout Units": "%", "inhibition at 10 µM": 51.3}
{"Mol": "COc1cc2[nH]c(C(=O)N(C)C)c(-c3ccccc3)c2cc1OC", "Readout Units": "%", "inhibition at 10 µM": 65.3}
{"Mol": "COc1ccc(-c2c(C#N)n(CCCN(C)C)c3cc(OC)c(OC)cc23)cc1", "Readout Units": "%", "inhibition at 10 µM": 79.4}
{"Mol": "CCOC(=O)CCc1[nH]c2cc(OC)c(OC)cc2c1-c1ccc(OC)cc1", "Readout Units": "%", "inhibition at 10 µM": 56.9}
{"Mol": "CNC(=O)c1[nH]c2cc(OC)c(OC)cc2c1-c1ccccc1", "Readout Units": "%", "inhibition at 10 µM": 82.4}

Could you now look at the following compound, please?
Need inhibition at 10 µM, item `COc1cc2[nH]c(-c3nnc[nH]3)c(-c3ccccc3)c2cc1OC`
53.9
